- Tested on: MKL-2
- PROCEDURE_SUMMARY: qHTS assay to identify novel small-molecules to repurpose for Merkel cell carcinoma treatment (AID 1296009); note: nearly all actives have a fitted effect of over 60% in size
- TEST_SETTINGS: MCC and control cell lines, CellTiter-Glo viability, 72 h; series mostly up to 46 µM
Results filed as inconclusive are left out. Active and inactive are the calls of the source. Calls come from the whole dose curve; as a rule, active = well fitted inhibition curve with a large enough effect; inconclusive = small, poorly fitted or top-dose-only effect; inactive = flat fitted curve, though single readings scatter.
Answer with one of the outcomes given here: active, inactive

Reference set (3 entries):
MOLECULE | LABEL
COc1ccc2c(c[n+](C)c3c4cc5c(cc4ccc23)OCO5)c1OC | active
CCCC[N+]1(C)[C@H]2CC(OC(=O)[C@H](CO)c3ccccc3)C[C@H]1[C@H]1O[C@H]12 (stereo not given in full) | inactive
CC[C@@H](C(N)=O)N1CCCC1=O | inactive

Qu. Short answer needed: outcome of this test for CCN1C[C@]2(OC(=O)c3ccccc3NC(C)=O)CC[C@H](OC)[C@@]34[C@H]5CC6[C@@H](OC)C[C@](O)(C(C[C@@H]23)[C@@H]14)[C@@]5(O)[C@@H]6OC ?
Ans. inactive

Qu. Short answer needed: outcome of this test for CCC(=O)O[C@@H]1C=C2CCC3C(CCC4(C)C3CC[C@@H]4OC(=O)CC)C2CC1 (stereo not given in full) ?
Ans. inactive

Qu. Short answer needed: outcome of this test for CC(O)CN1CCN(CC(=O)[O-])CCN(CC(=O)[O-])CCN(CC(=O)[O-])CC1.[Gd+3] (stereo not given) ?
Ans. inactive

Qu. Short answer needed: outcome of this test for CCOCCOC(C)=O ?
Ans. inactive

Qu. Short answer needed: outcome of this test for C[C@H]([C@H](O)CCC(C)(C)O)[C@H]1CC[C@@]2(O)C3=CC(=O)[C@@H]4C[C@@H](O)[C@@H](O)C[C@]4(C)[C@@H]3CC[C@]12C ?
Ans. inactive

* * *

Catalogue of Potency readings, one per entry.
- PROCEDURE_SUMMARY: Quantitative High-Throughput drug screen in 47 multiple myeloma cell lines against the NCATS MIPE library collection: SKMM1_PLB cell viability assay (AID 1919863); note: potency is the fitted concentration of half-maximal effect; nearly all actives have a fitted effect of over 35% in size
- TEST_SETTINGS: SKMM1 myeloma viability, CellTiter-Glo ATP, 48 h
Inconclusive results are not listed. The source made the active and inactive calls. Calls follow the shape of the dose curve; as a rule, active = well fitted cell-killing curve with a large enough effect; inconclusive = small, poorly fitted or top-dose-only effect, or effect the other way; inactive = no such curve, though single readings can be large or run the other way.

# count of solved cases: 2
COMPOUND | EXPERIMENTAL_RESULT
CN1CCN(c2ccc([N+](=O)[O-])c3no[n+]([O-])c23)CC1 | 18.7 µM (active)
O=S(=O)(CC1CS1)c1ccc(Oc2ccccc2)cc1 (stereo not drawn) | 20.9 µM (active)

The recorded Potency for Cc1c(C(=O)c2cccc3ccccc23)c2cccc3c2n1[C@H](CN1CCOCC1)CO3 is 23.5 µM (active)

* * *

- PROCEDURE_SUMMARY: Primary qHTS to identify inhibitors of SARS-CoV-2 cell entry (AID 1645846); note: nearly all actives have a fitted effect of over 45% in size
- TEST_SETTINGS: SARS-CoV-2 pseudovirus cell entry assay, luminescence; series mostly up to 57.1 µM
Results filed as inconclusive are left out. Activity calls are given as the source filed them. Calls follow the shape of the full dose curve.
Answer with one of the outcomes given here: true (1) for active, false (0) for inactive

Qu. Short answer needed: outcome of this test for C=CCNC(N)=S ?
Ans. false (0)

Qu. Short answer needed: outcome of this test for CC(=O)N[C@@H](Cc1ccc(O)cc1)C(=O)O ?
Ans. false (0)

Qu. Short answer needed: outcome of this test for CN1C(=O)C(Cc2c[nH]c3ccccc23)NC1=S (stereo unspecified) ?
Ans. false (0)

Qu. Short answer needed: outcome of this test for COc1cc2nc(N3CCCN(C)CC3)nc(NC3CCN(Cc4ccccc4)CC3)c2cc1OC ?
Ans. true (1)

Qu. Short answer needed: outcome of this test for CC1(N2CCC(n3c([C@@H]4CCCNC4)nc4ccccc43)CC2)CCCCCCC1 ?
Ans. true (1)

Qu. Short answer needed: outcome of this test for O=C(NCCCNc1nc(Nc2cccc(NC(=O)N3CCCC3)c2)ncc1I)c1cccs1 ?
Ans. false (0)

Qu. Short answer needed: outcome of this test for O=C(Nc1cccc(C2=NCCN2)c1)Nc1cccc(C2=NCCN2)c1 ?
Ans. false (0)

* * *

- Test system: HaCat
- PROCEDURE_SUMMARY: Cytotoxic Profiling of Annotated Libraries Using Quantitative High-Throughput Screening (AID 1296008); note: nearly all actives have a fitted effect of over 60% in size
- TEST_SETTINGS: Five cell lines viability, CellTiter-Glo ATP luminescence, 48-72 h
Inconclusive results are not listed. The source made the active and inactive calls. Calls come from the whole dose curve; as a rule, active = well fitted inhibition curve with a large enough effect; inconclusive = small, poorly fitted or top-dose-only effect; inactive = flat fitted curve, though single readings scatter.
Answer with one of the outcomes given here: active, inactive

COMPOUND | LABEL
C[C@]12Cc3cn[nH]c3C[C@@H]1CC[C@@H]1[C@H]2CC[C@@]2(C)[C@H]1CC[C@]2(C)O | inactive
CC(=O)NCCc1c[nH]c2ccccc12 | inactive
C[C@](O)(COc1ccc(C#N)cc1)C(=O)Nc1ccc(C#N)c(C(F)(F)F)c1 | inactive
C[C@@H]1[C@H](O)[C@@H](C)C=CC=CCCC=CC=CC=CC=C[C@H](O[C@H]2O[C@@H](C)[C@H](O)[C@@H](N)[C@@H]2O)CC2O[C@](O)(C[C@@H](O)[C@H](O)CC[C@@H](O)C[C@@H](O)C[C@@H](O)CC(=O)O[C@H]1C)C[C@H](O)[C@H]2C(=O)O | inactive
O=c1[nH]c2ccc(Cl)cc2c(N[C@@H]2CN3CCC2CC3)c1-c1nc2ccccc2[nH]1 | active
CCN1CCN(C(=O)Cc2ccc(Nc3ncc(F)c(Nc4ccc(C(=O)Nc5ccccc5Cl)cc4)n3)cc2)CC1 | active

Qu. Short answer needed: outcome of this test for COC1=C[C@@H]2[C@@H]3Cc4ccc(OC)c(O)c4[C@]2(CCN3C)CC1=O ?
Ans. inactive

Qu. Short answer needed: outcome of this test for CCOP(=O)(NC(C)C)Oc1ccc(SC)c(C)c1 (centres undefined) ?
Ans. inactive

Qu. Short answer needed: outcome of this test for O=C(O)C(Cl)Cl ?
Ans. inactive

* * *

- PROCEDURE_SUMMARY: qHTS of pediatric cancer cell lines to identify multiple opportunities for drug repurposing: Primary screen for BT-37 cells (AID 1347094)
- TEST_SETTINGS: BT-37 viability, CellTiter-Glo luminescence, 48 h; series mostly up to 57.3 µM
Inconclusive results are not listed. Calls of active or inactive are those of the source. Calls come from the whole dose curve; as a rule, active = well fitted cell-killing curve with a large enough effect; inconclusive = small, poorly fitted or top-dose-only effect; inactive = flat fitted curve, though single readings scatter.
Answer with one of the outcomes given here: active, inactive

Reference set (8 entries):
MOLECULE | LABEL
CC[C@@]1(O)C(=O)OCc2c1cc1n(c2=O)Cc2cc3ccccc3nc2-1 | active
C=CC(=O)NCNC(=O)C=C | inactive
O=[N+]([O-])c1ccc([As](=O)(O)O)cc1 | inactive
CCOC(=O)Nc1ccc(NCc2ccc(F)cc2)cc1N | inactive
CCN(CC)C(=O)c1ccc(C2=CC3(CCNCC3)Oc3cccc(O)c32)cc1 | inactive
CC(O)CN1CCN(CC(=O)[O-])CCN(CC(=O)[O-])CCN(CC(=O)[O-])CC1.[Gd+3] (stereo unspecified) | inactive
Nc1c(Cl)c(Cl)c(Cl)c(Cl)c1Cl | inactive
C1=C2CCCN[C@H]2[C@@H]2C[C@H]1[C@@H]1CCCCN1C2 | inactive

Qu. Short answer needed: outcome of this test for Oc1ccc2c3c1O[C@H]1[C@@H](O)C=C[C@H]4[C@@H](C2)NCC[C@@]341 ?
Ans. inactive

Qu. Short answer needed: outcome of this test for CCNC(=O)C[C@@H]1N=C(c2ccc(Cl)cc2)c2cc(OC)ccc2-n2c(C)nnc21 ?
Ans. active

Qu. Short answer needed: outcome of this test for O=C(Nc1ccccc1-c1ccc(Cl)cc1)c1cccnc1Cl ?
Ans. inactive

* * *

- PROCEDURE_SUMMARY: Cell Viability - LYMP2-019 (AID 973);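 note: cells exposed to compound for 24 h at 37 °C; nearly all actives have a fitted effect of over 55% in size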
- TEST_SETTINGS: LYMP2-019 lymphoblastoid cell line viability; series mostly up to 92.2 µM
Records with an inconclusive call do not appear. The source made the active and inactive calls. Calls follow the shape of the dose curve; as a rule, active = well fitted cell-killing curve with a large enough effect; inconclusive = small, poorly fitted or top-dose-only effect; inactive = flat fitted curve, though single readings scatter.
Answer with one of the outcomes given here: active, inactive

Reference set (2 entries):
STRUCTURE_STRING | LABEL
COc1ccc(C(c2ccc(OC)cc2)C(Cl)(Cl)Cl)cc1 | inactive
O=C(O)COc1ccccc1 | inactive

Qu. Short answer needed: outcome of this test for Cc1cc(O)ccc1Cl ?
Ans. inactive

Qu. Short answer needed: outcome of this test for CN(C)[C@@H]1C(=O)C(C(N)=O)=C(O)[C@@]2(O)C(=O)C3=C(O)c4c(O)cccc4[C@@](C)(O)[C@H]3[C@H](O)[C@@H]12 ?
Ans. inactive

Qu. Short answer needed: outcome of this test for O=[N+]([O-])c1cc([N+](=O)[O-])c2ccccc2c1 ?
Ans. inactive

Qu. Short answer needed: outcome of this test for O=[N+]([O-])c1c(Cl)c(Cl)cc(Cl)c1Cl ?
Ans. inactive

Qu. Short answer needed: outcome of this test for CCOCCOC(C)=O ?
Ans. inactive

Qu. Short answer needed: outcome of this test for CCCCCCCCc1ccc(O)cc1 ?
Ans. inactive

Qu. Short answer needed: outcome of this test for C=CC(=O)NCNC(=O)C=C ?
Ans. inactive

Qu. Short answer needed: outcome of this test for O=S(=O)(c1ccc(Cl)cc1)c1ccc(Cl)cc1 ?
Ans. inactive

Qu. Short answer needed: outcome of this test for Nc1ccc([N+](=O)[O-])cc1 ?
Ans. inactive

Qu. Short answer needed: outcome of this test for O=[N+]([O-])c1c2ccccc2cc2ccccc12 ?
Ans. inactive

Qu. Short answer needed: outcome of this test for CC(=O)[O][Hg][c]1ccccc1 ?
Ans. active

These measurements were taken from PubChem BioAssay (NCATS).
